# TARGET_OR_SYSTEM: Plasma kallikrein (Homo sapiens)
# Sequence (P03952 20-390 limits assumed): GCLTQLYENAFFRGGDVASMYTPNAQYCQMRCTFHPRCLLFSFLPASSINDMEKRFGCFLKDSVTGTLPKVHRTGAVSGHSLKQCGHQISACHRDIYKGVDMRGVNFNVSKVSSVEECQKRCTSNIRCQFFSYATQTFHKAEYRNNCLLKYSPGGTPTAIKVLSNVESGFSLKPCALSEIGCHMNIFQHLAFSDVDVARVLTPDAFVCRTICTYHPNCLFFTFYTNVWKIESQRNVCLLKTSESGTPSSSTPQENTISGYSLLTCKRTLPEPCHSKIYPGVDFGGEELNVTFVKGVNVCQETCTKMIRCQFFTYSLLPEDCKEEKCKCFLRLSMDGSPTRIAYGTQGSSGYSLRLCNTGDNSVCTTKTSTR
# Sequence (P03952 391-638 limits assumed): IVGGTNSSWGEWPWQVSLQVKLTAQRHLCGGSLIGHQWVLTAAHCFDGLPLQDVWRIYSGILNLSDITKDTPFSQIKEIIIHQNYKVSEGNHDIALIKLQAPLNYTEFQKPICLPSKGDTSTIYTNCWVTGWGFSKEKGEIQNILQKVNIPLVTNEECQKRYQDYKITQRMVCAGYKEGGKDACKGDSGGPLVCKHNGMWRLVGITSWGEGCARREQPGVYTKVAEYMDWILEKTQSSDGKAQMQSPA
# PROTOCOL_TEXT: Inhibition of kallikrein (unknown origin) using H-Pro-Phe-Arg-AMC as substrate incubated for 1 hr by fluorescence based analysis
READOUT: pIC50
Scale: pIC50 equals -log10([C]), with [C] in mol/L.

Challenge: Supply pIC50 value. Item: Cc1[nH]nc2c1CC[C@H]2NC(=O)c1cn(Cc2ccc(N3CC4(CC4)C3)nc2C(F)F)nn1
Response given: 9.30

Challenge: Supply pIC50 value. Item: Cc1[nH]nc2c1CC[C@H]2NC(=O)c1cn(Cc2ccc(N3CC4C(C3)C4(F)F)nc2C(F)F)cn1 (stereo partly specified)
Response given: 9.22

Challenge: Supply pIC50 value. Item: Cc1[nH]nc2c1CC[C@H]2NC(=O)c1cnn(Cc2ccc(N3CC4CC4C3)nc2C(F)F)c1 (stereo partly specified)
Response given: 9.10

Challenge: Supply pIC50 value. Item: Cc1[nH]nc2c1CC[C@H]2NC(=O)c1cn(Cc2ccc(N3CC4(CC4)C3)nc2C(F)F)cn1
Response given: 9.30

Challenge: Supply pIC50 value. Item: Cc1[nH]nc2c1CC[C@H]2NC(=O)c1cnn(Cc2ccc(N3CC4C(C3)C4(F)F)nc2C(F)F)c1 (stereo partly specified)
Response given: 9.10

Challenge: Supply pIC50 value. Item: Cc1[nH]nc2c1CC[C@H]2NC(=O)c1cn(Cc2ccc(N3CC4CC4C3)nc2C(F)F)cn1 (stereo partly specified)
Response given: 9.15

Source listed as ChEMBL document CHEMBL4831551.
